compounds and their reported KIDNEY_L
Species: Rattus norvegicus
testDescription: Open TG-GATES - Regimen: Daily Repeat
Type: toxicity, organism-based, Sprague-Dawley
Design: regimen Daily Repeat, gender Male, age 6 weeks
measurementParameters: in vivo, po, 0 mg/kg, […], tissue Kidney, route gavage, dose level Control, time 7 day
Write it as a number; the unit g goes unstated.

Use the examples below as a reference point.
NC(N)=Nc1nc(CSCCC(N)=NS(N)(=O)=O)cs1    1.1
CN1C(=O)CN=C(c2ccccc2)c2cc(Cl)ccc21    1.2
CCOC(=O)CCC(=O)O[C@H]1[C@H](O[C@@H]2[C@@H](C)[C@H](O[C@H]3C[C@@](C)(OC)[C@@H](O)[C@H](C)O3)[C@@H](C)C(=O)O[C@H](CC)[C@@](C)(O)[C@H](O)[C@@H](C)C(=O)[C@H](C)C[C@@]2(C)O)O[C@H](C)C[C@@H]1N(C)C [ERYTHROMYCIN ETHYLSUCCINATE]    1.1
CN(C)CCCN1c2ccccc2CCc2ccccc21    1.1
COC1=CC(=O)C[C@@H](C)[C@]12Oc1c(Cl)c(OC)cc(OC)c1C2=O    1.1

Next item in the queue.
Item: CC(C)OC(=O)C(C)(C)Oc1ccc(C(=O)c2ccc(Cl)cc2)cc1 [FENOFIBRATE] | KIDNEY_L: 1.1

Values compiled from ChEMBL document CHEMBL3885861.
